System: U2OS
Experimental protocol: Multiplex assay against U2OS
Format: toxicity, cell-based
Test parameters: human, 12 h, 10 µM, compound concentration 10 uM, replicate 1
Recorded Population Fragmented Nuclei (%) values for a group of compounds are listed next.
Property label: Population Fragmented Nuclei (%)

>>> test_value("C[C@]12CC[C@@H]3c4ccc(O)cc4CC[C@H]3[C@@H]1CC[C@@H]2O [ESTRADIOL]")
5
>>> test_value("CC1=C(C(=O)Nc2cc3cn[nH]c3cc2F)C(c2ccc(C(F)(F)F)cc2)CC(=O)N1 (stereo not drawn)")
7
>>> test_value("CCc1ccc(OCc2ccccc2C(=O)Nc2ccc3nc(C)cc(N)c3c2)cc1.Cl")
9
>>> test_value("COc1cc2ncn(-c3cc(OCc4ccccc4C(F)(F)F)c(C(N)=O)s3)c2cc1OC [GW843682X]")
12
>>> test_value("CC(C)OC(=O)N1CCC(Oc2ncnc3c2cnn3-c2ccc(S(C)(=O)=O)cc2F)CC1")
11
>>> test_value("CC(C)Oc1ccccc1C(=O)Nc1ccccc1C(=O)Nc1cccc(S(=O)(=O)C(F)(F)F)c1")
14
>>> test_value("CN1CCN(Cc2ccc(Nc3ncc(Cl)c(Nc4ccccc4S(=O)(=O)N(C)C)n3)cc2)CC1 [DUBERMATINIB]")
25
>>> test_value("COC(=O)C1=C(C)NC(C)=C(C(=O)OCCCN2CCC(c3ccccc3)(c3ccccc3)CC2)[C@H]1c1cccc([N+](=O)[O-])c1 [NIGULDIPINE]")
62

----------
Recorded Population Tubulin-Different-Phenotype (%) values for a group of compounds are listed next.
System: U2OS
Experimental protocol: Multiplex assay against U2OS
Type: toxicity, cell-based
Test parameters: human, 12 h, 10 µM, compound concentration 10 uM, replicate 1
Property label: Population Tubulin-Different-Phenotype (%)

>>> test_value("COc1cc2ncn(-c3cc(OCc4ccccc4C(F)(F)F)c(C(N)=O)s3)c2cc1OC [GW843682X]")
97
>>> test_value("CC(C)(C)NC[C@H](O)COc1nsnc1N1CCOCC1")
8
>>> test_value("CC(C)CC(=O)Nc1[nH]nc2c1CN(C(=O)C1CCN(C)CC1)C2(C)C")
32
>>> test_value("C=CC(=O)Nc1cccc(Sc2nc(Nc3ccc(N4CCN(C)CC4)cc3)ncc2Cl)c1")
25
>>> test_value("O=c1cc(N2CCOCC2)oc2c(-c3cccc4c3sc3ccccc34)cccc12")
100
>>> test_value("CCCSc1nc(N[C@@H]2C[C@H]2c2ccc(F)c(F)c2)c2nnn([C@@H]3C[C@H](OCCO)[C@@H](O)[C@H]3O)c2n1")
100
>>> test_value("CNC(=O)Nc1ccc2c(c1)[C@@]1(CC2)OC(=O)N(CC(=O)N(Cc2ccc(F)cc2)[C@@H](C)C(F)(F)F)C1=O")
12
>>> test_value("Cc1c[nH]c2nccc(Oc3c(F)cc(Nc4cc(Cl)nc(N)n4)cc3F)c12")
16
>>> test_value("CNC(=O)Nc1ccc(-c2nc(N3CC4CCC(C3)O4)c3cnn(C4CCC5(CC4)OCCO5)c3n2)cc1")
96
>>> test_value("CC(C)c1noc(N2CCC(COc3ccc(-c4ccc(S(C)(=O)=O)cc4)nc3)CC2)n1")
33
>>> test_value("O=c1[nH]c2ccccc2n1C1CCN(Cc2ccc(-c3[nH]c4cc5ncnc5cc4nc3-c3ccccc3)cc2)CC1")
100
>>> test_value("CN1CCN(Cc2ccc(Nc3ncc(Cl)c(Nc4ccccc4S(=O)(=O)N(C)C)n3)cc2)CC1")
28
>>> test_value("Cl.O=C(O)c1cc(-c2ccc(C3CCNCC3)cc2)c2ccc(-c3ccc(C(F)(F)F)cc3)cc2c1")
14
>>> test_value("Cc1cccc(CN2CCN(C(c3ccccc3)c3ccc(Cl)cc3)CC2)c1.Cl.Cl (configuration not stated)")
78
>>> test_value("C=CC(=O)Nc1cccc(Oc2nc(Nc3ccc(N4CCN(C)CC4)cc3OC)ncc2Cl)c1")
21
>>> test_value("CCc1nn(CCCN2CCN(c3cccc(Cl)c3)CC2)c(=O)n1CCOc1ccccc1.Cl [NEFAZODONE HYDROCHLORIDE]")
100
>>> test_value("CC(C)NC(=O)N1CC[C@H](NC2=Nc3cc(F)ccc3N(CC(F)F)c3ccc(Cl)cc32)C1")
89
>>> test_value("COc1ccc(-c2ccc3ncc4c(c3c2)n(-c2ccc(N3CCNCC3)c(C(F)(F)F)c2)c(=O)n4C)cn1.O=C(O)/C=C\\C(=O)O")
50
>>> test_value("CC(C)OC(=O)N1CCC(Oc2ncnc3c2cnn3-c2ccc(S(C)(=O)=O)cc2F)CC1")
24
>>> test_value("COc1ccccc1CN[C@H]1C2CCN(CC2)[C@H]1C(c1ccccc1)c1ccccc1")
84
>>> test_value("COc1cc(Nc2nccc(-c3cnn4nc(OC)ccc34)n2)cc(C(F)(F)F)c1")
27
>>> test_value("CCc1ccc(OCc2ccccc2C(=O)Nc2ccc3nc(C)cc(N)c3c2)cc1.Cl")
97
>>> test_value("C=CC(=O)Nc1ccc2[nH]c(=O)n(C3CCN(Cc4ccc(-c5nc6cc[nH]c(=O)c6cc5-c5ccccc5)cc4)CC3)c2c1")
38
>>> test_value("Cc1cc(NC(=O)c2cccc(S(F)(F)(F)(F)F)c2)cc(-n2ccn3nc(-c4cccnc4)cc23)c1")
67
>>> test_value("CC1=C(C(=O)Nc2cc3cn[nH]c3cc2F)C(c2ccc(C(F)(F)F)cc2)CC(=O)N1 (configuration not stated)")
4
>>> test_value("C[C@]12CC[C@@H]3c4ccc(O)cc4CC[C@H]3[C@@H]1CC[C@@H]2O")
14
>>> test_value("Cc1nc(N2CC[C@H](O)C2)ncc1-c1cc(C(F)(F)F)cc2[nH]ncc12")
26

----------
Test system: Fibroblast
Experimental protocol: Multiplex assay against human fibroblast
Assay type: toxicity, cell-based
Test parameters: 24 h, 1 µM, compound concentration 1 uM, replicate 1
Property label: Population Membrane Permeable-Phenotype (%)

>>> test_value("COc1cc(Nc2nccc(-c3cnn4nc(OC)ccc34)n2)cc(C(F)(F)F)c1")
8
>>> test_value("CNC(=O)Nc1ccc2c(c1)[C@@]1(CC2)OC(=O)N(CC(=O)N(Cc2ccc(F)cc2)[C@@H](C)C(F)(F)F)C1=O")
17
>>> test_value("CCc1ccc(OCc2ccccc2C(=O)Nc2ccc3nc(C)cc(N)c3c2)cc1.Cl")
10
>>> test_value("CC1=C(C(=O)Nc2cc3cn[nH]c3cc2F)C(c2ccc(C(F)(F)F)cc2)CC(=O)N1 (centres undefined)")
35
>>> test_value("Cc1cccc(CN2CCN(C(c3ccccc3)c3ccc(Cl)cc3)CC2)c1.Cl.Cl (centres undefined)")
34
>>> test_value("CC(C)CC(=O)Nc1[nH]nc2c1CN(C(=O)C1CCN(C)CC1)C2(C)C")
6
>>> test_value("CC(C)OC(=O)N1CCC(Oc2ncnc3c2cnn3-c2ccc(S(C)(=O)=O)cc2F)CC1")
33
>>> test_value("COc1ccc(-c2ccc3ncc4c(c3c2)n(-c2ccc(N3CCNCC3)c(C(F)(F)F)c2)c(=O)n4C)cn1.O=C(O)/C=C\\C(=O)O")
58
>>> test_value("CNC(=O)Nc1ccc(-c2nc(N3CC4CCC(C3)O4)c3cnn(C4CCC5(CC4)OCCO5)c3n2)cc1")
25

----------
System: Fibroblast
Experimental protocol: Multiplex assay against human fibroblast
Type: toxicity, cell-based
Test parameters: 12 h, 1 µM, compound concentration 1 uM, replicate 2
Property label: Population Pyknosed Nuclei (%)

>>> test_value("CCCSc1nc(N[C@@H]2C[C@H]2c2ccc(F)c(F)c2)c2nnn([C@@H]3C[C@H](OCCO)[C@@H](O)[C@H]3O)c2n1")
4
>>> test_value("Cc1c[nH]c2nccc(Oc3c(F)cc(Nc4cc(Cl)nc(N)n4)cc3F)c12")
14
>>> test_value("CNC(=O)Nc1ccc2c(c1)[C@@]1(CC2)OC(=O)N(CC(=O)N(Cc2ccc(F)cc2)[C@@H](C)C(F)(F)F)C1=O")
21
>>> test_value("CN1CCN(Cc2ccc(Nc3ncc(Cl)c(Nc4ccccc4S(=O)(=O)N(C)C)n3)cc2)CC1")
2
>>> test_value("CC(C)Oc1ccccc1C(=O)Nc1ccccc1C(=O)Nc1cccc(S(=O)(=O)C(F)(F)F)c1")
6
>>> test_value("Cc1ccccc1C(c1ccccc1C)N1C2CCC1CC(O)(c1ccccc1)C2 (stereo unspecified)")
9
>>> test_value("CC(C)(C)NC[C@H](O)COc1nsnc1N1CCOCC1")
5
>>> test_value("O=C(c1cc2c(cc1F)OC(c1ccc(F)cc1)(c1ccc(Cl)cc1Cl)O2)N1CCOCC1 (stereo unspecified)")
12
>>> test_value("CNC(=O)Nc1ccc(-c2nc(N3CC4CCC(C3)O4)c3cnn(C4CCC5(CC4)OCCO5)c3n2)cc1")
16
>>> test_value("COc1ccc(-c2ccc3ncc4c(c3c2)n(-c2ccc(N3CCNCC3)c(C(F)(F)F)c2)c(=O)n4C)cn1.O=C(O)/C=C\\C(=O)O")
29
>>> test_value("Cl.O=C(O)c1cc(-c2ccc(C3CCNCC3)cc2)c2ccc(-c3ccc(C(F)(F)F)cc3)cc2c1")
5
>>> test_value("CCc1ccc(OCc2ccccc2C(=O)Nc2ccc3nc(C)cc(N)c3c2)cc1.Cl")
33
>>> test_value("CC(C)OC(=O)N1CCC(Oc2ncnc3c2cnn3-c2ccc(S(C)(=O)=O)cc2F)CC1")
3
>>> test_value("COc1cc(Nc2nccc(-c3cnn4nc(OC)ccc34)n2)cc(C(F)(F)F)c1")
5
>>> test_value("CCc1nn(CCCN2CCN(c3cccc(Cl)c3)CC2)c(=O)n1CCOc1ccccc1.Cl [NEFAZODONE HYDROCHLORIDE]")
1
>>> test_value("CC1=C(C(=O)Nc2cc3cn[nH]c3cc2F)C(c2ccc(C(F)(F)F)cc2)CC(=O)N1 (stereo unspecified)")
4
